Record set of log10 of Ki for target or system Alpha-2B adrenergic receptor (Rattus norvegicus, UniProt P19328).
Recall that a logarithmic scale is used here: each number is log10 of Ki in µM.

CCOC1(C2=NCCN2)COc2ccccc2O1 (centres undefined) [NSC_125992]
-3.24

Dear colleague, could you send me log10 of Ki for each of the items below? Thanks.
1. Clc1ccc2nsnc2c1NC1=NCCN1
2. c1cn2ccnc2c(N2CCNCC2)n1 [L-639,019]
3. CN1C[C@H](Cn2ccnc2-c2ccccc2)C[C@@H]2c3cccc4[nH]c(Br)c(c34)C[C@H]21 [BAM-1303]
4. CN(C)CCCN1c2ccc(O)cc2Sc2ccc(Cl)cc21 [NSC_16414]
5. c1ccc(CC2=NCCN2)cc1 [Tolazoline]

[-1.12, -1.47, -1.59, -1.23, -0.95]
